# Test system: Rattus norvegicus
# test.method.notes: Antiinflammatory activity in rat assessed as inhibition of carrageenan induced paw edema at 10 mg/kg after 1 hr relative to control
# Format: functional
quantity.name: inhibition in vivo at 10 mg/kg (%)

In [3]: df
Out[3]:
                                   compound  value_measured
0  CCCN1CC(c2ccc(S(C)(=O)=O)cc2)=C(c2ccc(C(=O)O)cc2)C1=O            45.4
1  CCCN1CC(c2ccc(S(C)(=O)=O)cc2)=C(c2ccc(CO)cc2)C1=O            26.5
2  Cc1ccc(-c2cc(C(F)(F)F)nn2-c2ccc(S(N)(=O)=O)cc2)cc1 [CELECOXIB]            23.5
3  CCCN1CC(c2ccc(S(C)(=O)=O)cc2)=C(c2ccc(C)cc2)C1=O [IMRECOXIB]            31.3

====

# Lookup of reported pIC50 keyed by entry
# tested.system: Prostaglandin G/H synthase 2 (Mus musculus, UniProt Q05769)
# Sequence (Q05769 whole entry): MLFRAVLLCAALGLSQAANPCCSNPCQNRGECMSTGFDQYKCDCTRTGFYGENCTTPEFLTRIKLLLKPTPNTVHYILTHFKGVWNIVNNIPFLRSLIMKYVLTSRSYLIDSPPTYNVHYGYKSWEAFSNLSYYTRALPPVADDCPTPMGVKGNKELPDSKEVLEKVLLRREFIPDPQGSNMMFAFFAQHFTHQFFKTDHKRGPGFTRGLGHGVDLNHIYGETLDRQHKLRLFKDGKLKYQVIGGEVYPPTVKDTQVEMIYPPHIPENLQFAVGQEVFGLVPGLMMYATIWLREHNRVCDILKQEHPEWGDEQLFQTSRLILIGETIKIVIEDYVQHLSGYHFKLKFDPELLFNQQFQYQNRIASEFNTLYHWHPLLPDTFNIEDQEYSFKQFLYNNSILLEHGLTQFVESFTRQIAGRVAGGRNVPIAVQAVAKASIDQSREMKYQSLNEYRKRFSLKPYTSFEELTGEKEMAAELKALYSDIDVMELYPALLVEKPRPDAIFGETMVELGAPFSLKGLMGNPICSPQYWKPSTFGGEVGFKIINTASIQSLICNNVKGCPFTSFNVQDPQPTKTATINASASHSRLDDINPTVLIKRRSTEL
# test.method.notes: Inhibition of COX2 in mouse peritoneal macrophages
pIC50: −log10 of the molar value.
quantity.name: pIC50

>>> df
                                  structure  value_measured
0  CCCN1CC(c2ccc(S(C)(=O)=O)cc2)=C(c2ccc(C(=O)O)cc2)C1=O            6.39
1  CCCN1CC(c2ccc(S(C)(=O)=O)cc2)=C(c2ccc(C)cc2)C1=O            7.74
2  CCCN1CC(c2ccc(S(C)(=O)=O)cc2)=C(c2ccc(CO)cc2)C1=O            7.85

====

# tested.system: Prostaglandin G/H synthase 1 (Mus musculus)
# Sequence (P22437 whole entry): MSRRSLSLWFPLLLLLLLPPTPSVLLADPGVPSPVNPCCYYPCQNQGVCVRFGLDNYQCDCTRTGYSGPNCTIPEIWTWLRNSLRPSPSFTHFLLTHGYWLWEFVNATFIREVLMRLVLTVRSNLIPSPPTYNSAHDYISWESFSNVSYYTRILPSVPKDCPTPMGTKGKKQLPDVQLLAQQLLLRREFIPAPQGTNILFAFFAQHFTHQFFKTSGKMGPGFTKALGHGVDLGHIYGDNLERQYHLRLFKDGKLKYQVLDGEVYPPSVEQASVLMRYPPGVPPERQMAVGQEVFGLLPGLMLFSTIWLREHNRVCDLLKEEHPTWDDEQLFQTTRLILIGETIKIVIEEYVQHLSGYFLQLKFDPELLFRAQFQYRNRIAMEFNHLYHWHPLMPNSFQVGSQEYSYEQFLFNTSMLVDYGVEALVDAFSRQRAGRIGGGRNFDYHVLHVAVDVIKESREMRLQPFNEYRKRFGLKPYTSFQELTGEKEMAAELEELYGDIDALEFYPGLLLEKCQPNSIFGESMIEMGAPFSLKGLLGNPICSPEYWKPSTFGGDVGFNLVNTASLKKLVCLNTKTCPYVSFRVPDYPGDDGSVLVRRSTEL
# test.method.notes: Inhibition of COX1 in mouse peritoneal macrophages
# Lookup of reported IC50 keyed by entry
quantity.name: IC50 (nM)

                                   molecule  quantity_name  reading_unit  value_measured
0  CCCN1CC(c2ccc(S(C)(=O)=O)cc2)=C(c2ccc(C)cc2)C1=O [IMRECOXIB]           IC50            nM             115
1  CCCN1CC(c2ccc(S(C)(=O)=O)cc2)=C(c2ccc(CO)cc2)C1=O           IC50            nM              87
